The measurements presented in this section are drawn from PubChem BioAssay (NCI).

# Test system: HT29 colon
# MEASUREMENT_PROTOCOL: NCI-60 one-dose screen, 48 h (100 = growth as untreated, 0 = no growth, -100 = all killed)
# RECORDED_CONDITIONS: 10 µM unless noted
This is part of a sample that, as a whole, favours compounds with a hit. Of some 83,000 tested, about 20% had one in any assay.
growth of 50% or higher: 1. Under 50%: 0.

Query :: Please tell me: is the compound CCc1ccccc1-n1c(-c2ccc(Cl)cc2)cc(-c2ccc(Cl)cc2)c(C#N)c1=O at or over 50% in terms of growth?
Result :: 1

Query :: Please tell me: is the compound Cn1c(I)c(C#C[Si](C)(C)C)c(=O)n(C(=O)c2ccccc2)c1=O at or over 50% in terms of growth?
Result :: 0

Query :: Please tell me: is the compound CCN1CCN(c2cc(C)nc(NCc3cc(Nc4ccnc5cc(Cl)ccc45)ccc3F)n2)CC1 at or over 50% in terms of growth?
Result :: 0

Query :: Please tell me: is the compound CCN(CC)CCN1CC(O)=C(c2nc(-c3ccc(Cl)cc3)cs2)C1=N at or over 50% in terms of growth?
Result :: 0

Query :: Please tell me: is the compound CN(C)c1ccc(/C=C/C(=O)c2cccc(Nc3nc(Nc4ccccc4)nc(Nc4ccccc4)n3)c2)cc1 at or over 50% in terms of growth?
Result :: 1

Query :: Please tell me: is the compound Clc1cccc(Cl)c1/C=C/c1cc(/C=C/c2c(Cl)cccc2Cl)[nH]n1 at or over 50% in terms of growth?
Result :: 0

Query :: Please tell me: is the compound O=C1Nc2ccc(F)cc2C12Nc1cc(Cl)ccc1S2 (stereo not given) at or over 50% in terms of growth?
Result :: 1

Query :: Please tell me: is the compound Cc1c2c(c(C)c3c1oc1cc(O)ccc13)C(=O)N(CCN1CCCCC1)C2=O at or over 50% in terms of growth?
Result :: 1

Query :: Please tell me: is the compound O=c1[nH]ccc2nc(N3CCC(O)CC3)nc(Nc3ccc(N4CCOCC4)cc3)c12 at or over 50% in terms of growth?
Result :: 0

* * *

# System: SK-MEL-2 melanoma
# MEASUREMENT_PROTOCOL: NCI-60 one-dose screen, 48 h (100 = growth as untreated, 0 = no growth, -100 = all killed)
# RECORDED_CONDITIONS: 10 µM unless noted
About 83,000 compounds went through this panel and 20% of them were active in at least one assay; those are over-represented in the sample as a whole.
ASSAY_ENDPOINT: growth (%)
Give the value, in units of %, as a plain number.

Query :: Identify measured growth associated with Nc1n[nH]c2cc(F)c([C@@H]3Nc4c(F)cc5[nH]ncc5c4[C@H]4C5CCC(C5)[C@@H]34)cc12 (stereo not given in full)
Result :: 43.5

Query :: Identify measured growth associated with C=C(C)[C@@H]1CC[C@]2(C)[C@H](CC=C3[C@@H]4CC(C)(C)CC[C@]4(C(N)=O)CC[C@]32C)[C@@]1(C)CCC#N
Result :: -0.287

Query :: Identify measured growth associated with S=C(Cc1ccc2c(c1)CCCC2)N1CCOCC1
Result :: 87.1

Query :: Identify measured growth associated with O=c1[nH]nc(-c2ccccc2)c2c(-c3ccccc3)onc12
Result :: 30.7

Query :: Identify measured growth associated with Cc1occc1-c1n[nH]c(=S)n1N1C(=O)CSC1=S
Result :: 107

Query :: Identify measured growth associated with Cc1nn(-c2ccccc2)c(Oc2ccc(Cl)cc2)c1/C=N\N=c1/sc2ccccc2n1C
Result :: 78.1

Query :: Identify measured growth associated with CC(C)CC(NC(=O)CN(Cc1ccccc1)S(C)(=O)=O)C(=O)O (stereo not given)
Result :: 125

Query :: Identify measured growth associated with NC(N)=Nc1nc2ccccc2n2c1nc1ccccc12
Result :: 70.3

Query :: Identify measured growth associated with COc1ccc(/C=c2\nc3n(-c4ccccc4)c4nc5c6c(sc5c(=N)n4n-3c2=O)CCCC6)cc1
Result :: 99.4

Query :: Identify measured growth associated with CCCCCCN(CCCCCC)c1ccc(/C=C2/SC(=O)N(c3nc(N4CCCC4)nc(N4CCCC4)n3)C2=O)c(C)c1
Result :: 53.9

* * *

# Tested on: U251 CNS
# MEASUREMENT_PROTOCOL: NCI-60 one-dose screen, 48 h
# RECORDED_CONDITIONS: 10 µM unless noted
About 83,000 compounds went through this panel and 20% of them were active in at least one assay; those are over-represented in the sample as a whole. Calls of active or inactive are those of the source. Rule for the calls: active = growth percent below 10; inactive = the rest.
Pick one: active, inactive

Query :: # lookup: test call for COc1cccc(-c2nn(-c3ccccc3)cc2-c2ccnc(NCCNC(=O)Nc3ccc(Cl)c(Cl)c3)c2)c1
Result :: active

Query :: # lookup: test call for N=C(N)c1ccc(-c2ccc(-c3cncc4ccccc34)s2)s1
Result :: active

Query :: # lookup: test call for N#Cc1c(N)nc(NCCO)nc1-c1ccc(F)cc1
Result :: inactive

Query :: # lookup: test call for CC(C)=C[C@@H]1c2c(c3ccccc3n(C)c2=O)O[C@H]2c3c(c4ccccc4n(C)c3=O)OC(C)(C)[C@@H]12
Result :: inactive

Query :: # lookup: test call for Cc1ccc(Nc2ccc(Nc3ccc(C)cc3)c3c2C(=O)c2cccc(O)c2C3=O)cc1
Result :: inactive

Query :: # lookup: test call for O=[N+]([O-])c1ccc(Sc2cccc[n+]2[O-])c2nonc12
Result :: active

Query :: # lookup: test call for OC(c1cccc(-n2ccc(C(F)(F)F)n2)c1)c1cnccc1NC1CCCCCC1 (centres undefined)
Result :: active

Query :: # lookup: test call for COC(=O)[C@]12CC[C@@H](C)[C@H](C)[C@@H]1C1=CC[C@@H]3[C@@]4(C)C(C=O)=C[C@@](C)(COC(=O)c5ccco5)[C@@H]4C(=O)C[C@@]3(C)[C@]1(C)CC2
Result :: inactive

Query :: # lookup: test call for CC(C)(C)n1cc(-c2ccnc(NCCCNS(=O)(=O)c3ccccc3)c2)c(-c2ccccc2)n1
Result :: inactive

Query :: # lookup: test call for C[C@@H]1N=C(c2ccc3ccccc3n2)Nc2nc3ccccn3c2C1=O
Result :: inactive

Query :: # lookup: test call for Cc1ccc(S(=O)(=O)n2cc(CNc3ccc(N4CCOCC4=O)cc3)c3ccccc32)cc1
Result :: inactive

Query :: # lookup: test call for COc1ccc2c(c1)C(=O)/C(=C/c1ccc(OCC(=O)Nc3nccs3)cc1)O2
Result :: active

Query :: # lookup: test call for COc1cc(N2C(=O)c3nccnc3C2=O)cc(OC)c1OC
Result :: inactive

Query :: # lookup: test call for Cc1cc(N2CCCC2)nc(NCc2cc(Nc3ccnc4cc(Cl)ccc34)ccc2F)n1
Result :: active

Query :: # lookup: test call for CCN(CCNc1ccc(C)c2sc3ccccc3c(=O)c12)CC(C)(C)O
Result :: inactive

Query :: # lookup: test call for CC(C)CCC[C@@H](C)[C@H]1CC[C@H]2[C@@H](Nc3ccc(O)cc3)CCC[C@]12C
Result :: inactive

Query :: # lookup: test call for COc1cc(CCC[P+](c2ccccc2)(c2ccccc2)c2ccccc2)cc2c1OCO2
Result :: inactive

Query :: # lookup: test call for Cc1ccc2[nH]c(=O)c3c(c2c1)OC(N)=C(C#N)C31c2cc(Br)ccc2-c2ccc(Br)cc21
Result :: inactive

Query :: # lookup: test call for C=C1C(=O)O[C@H]2[C@H]1CC/C(COC(=O)C(=O)c1c[nH]c3ccccc13)=C\CC[C@@]1(C)O[C@@H]21
Result :: active

* * *

# Tested on: U251 CNS
# MEASUREMENT_PROTOCOL: NCI-60 one-dose screen, 48 h
# RECORDED_CONDITIONS: 10 µM unless noted
This is part of a sample that, as a whole, favours compounds with a hit. Of some 83,000 tested, about 20% had one in any assay. Activity calls are given as the source filed them. How the source made its calls: active means growth percent below 10; inactive means the rest.
Pick one: label 1 = active, label 0 = inactive

Query :: # lookup: test call for Cc1ccc2nc(NC(=O)CSc3nc(-c4ccccc4)c(C#N)c(=O)n3Cc3ccccc3)sc2c1
Result :: label 0

Query :: # lookup: test call for CC/C=C\C[C@H](O)C/C=C1/C(=O)C=C[C@@H]1C/C=C\CCCCO
Result :: label 1

Query :: # lookup: test call for N#Cc1c(-c2cccc(Cl)c2)cc(-c2cccc(Cl)c2)[nH]c1=O
Result :: label 0

Query :: # lookup: test call for Cc1cc(=O)oc2c1ccc1oc(C#N)c(C)c12
Result :: label 0

Query :: # lookup: test call for CN(C)CCC=C1c2ccccc2C(C)(C)c2ccccc21
Result :: label 0

Query :: # lookup: test call for c1coc(-c2c3ccc(=[N+]4CCCCC4)cc-3oc3cc(N4CCCCC4)ccc23)c1
Result :: label 1
